These data points were gathered from ChEMBL document CHEMBL1131280.

- Assay system: Metabotropic glutamate receptor 2 (Homo sapiens)
- Sequence (Q14416 whole entry): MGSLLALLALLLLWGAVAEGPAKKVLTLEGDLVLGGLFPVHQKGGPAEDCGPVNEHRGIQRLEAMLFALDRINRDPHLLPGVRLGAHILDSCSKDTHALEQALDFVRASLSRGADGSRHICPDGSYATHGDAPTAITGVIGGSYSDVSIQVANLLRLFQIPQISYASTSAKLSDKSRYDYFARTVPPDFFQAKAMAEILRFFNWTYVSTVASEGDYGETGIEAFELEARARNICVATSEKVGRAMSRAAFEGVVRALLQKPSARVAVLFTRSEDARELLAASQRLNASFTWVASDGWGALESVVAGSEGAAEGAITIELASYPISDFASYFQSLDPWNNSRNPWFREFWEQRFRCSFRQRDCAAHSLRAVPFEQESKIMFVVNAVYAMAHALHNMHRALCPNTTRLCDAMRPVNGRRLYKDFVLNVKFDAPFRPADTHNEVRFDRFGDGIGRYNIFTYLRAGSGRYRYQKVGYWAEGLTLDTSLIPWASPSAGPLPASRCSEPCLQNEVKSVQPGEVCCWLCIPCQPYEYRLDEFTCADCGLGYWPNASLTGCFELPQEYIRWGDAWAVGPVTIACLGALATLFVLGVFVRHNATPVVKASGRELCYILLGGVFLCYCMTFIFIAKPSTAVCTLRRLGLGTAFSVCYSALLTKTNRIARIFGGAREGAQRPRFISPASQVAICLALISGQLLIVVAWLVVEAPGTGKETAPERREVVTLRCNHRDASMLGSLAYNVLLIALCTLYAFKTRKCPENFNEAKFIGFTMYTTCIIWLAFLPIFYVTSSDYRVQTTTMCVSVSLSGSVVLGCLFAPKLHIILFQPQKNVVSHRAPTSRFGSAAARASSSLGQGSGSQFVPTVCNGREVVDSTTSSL
- Test name: Tested for […] in non-neuronal cells (RGT) expressing human Metabotropic glutamate receptor 2 by measuring ACPD (3 uM) induced inhibition of forskolin (15 uM)-stimulated cAMP formation
pIC50: −log10 of the molar value.
Measured quantity: pIC50

P = N[C@@H](C[C@H](CC(c1ccccc1)c1ccccc1)C(=O)O)C(=O)O
Q = N[C@@H](C[C@H](CCCC(c1ccccc1)c1ccccc1)C(=O)O)C(=O)O
Query string: Pick the one with the larger pIC50: P vs Q Use the label to indicate which entry you chose.
Result string: P

----------
- Assay system: Metabotropic glutamate receptor 5 (Homo sapiens, UniProt P41594)
- Sequence (P41594 whole entry): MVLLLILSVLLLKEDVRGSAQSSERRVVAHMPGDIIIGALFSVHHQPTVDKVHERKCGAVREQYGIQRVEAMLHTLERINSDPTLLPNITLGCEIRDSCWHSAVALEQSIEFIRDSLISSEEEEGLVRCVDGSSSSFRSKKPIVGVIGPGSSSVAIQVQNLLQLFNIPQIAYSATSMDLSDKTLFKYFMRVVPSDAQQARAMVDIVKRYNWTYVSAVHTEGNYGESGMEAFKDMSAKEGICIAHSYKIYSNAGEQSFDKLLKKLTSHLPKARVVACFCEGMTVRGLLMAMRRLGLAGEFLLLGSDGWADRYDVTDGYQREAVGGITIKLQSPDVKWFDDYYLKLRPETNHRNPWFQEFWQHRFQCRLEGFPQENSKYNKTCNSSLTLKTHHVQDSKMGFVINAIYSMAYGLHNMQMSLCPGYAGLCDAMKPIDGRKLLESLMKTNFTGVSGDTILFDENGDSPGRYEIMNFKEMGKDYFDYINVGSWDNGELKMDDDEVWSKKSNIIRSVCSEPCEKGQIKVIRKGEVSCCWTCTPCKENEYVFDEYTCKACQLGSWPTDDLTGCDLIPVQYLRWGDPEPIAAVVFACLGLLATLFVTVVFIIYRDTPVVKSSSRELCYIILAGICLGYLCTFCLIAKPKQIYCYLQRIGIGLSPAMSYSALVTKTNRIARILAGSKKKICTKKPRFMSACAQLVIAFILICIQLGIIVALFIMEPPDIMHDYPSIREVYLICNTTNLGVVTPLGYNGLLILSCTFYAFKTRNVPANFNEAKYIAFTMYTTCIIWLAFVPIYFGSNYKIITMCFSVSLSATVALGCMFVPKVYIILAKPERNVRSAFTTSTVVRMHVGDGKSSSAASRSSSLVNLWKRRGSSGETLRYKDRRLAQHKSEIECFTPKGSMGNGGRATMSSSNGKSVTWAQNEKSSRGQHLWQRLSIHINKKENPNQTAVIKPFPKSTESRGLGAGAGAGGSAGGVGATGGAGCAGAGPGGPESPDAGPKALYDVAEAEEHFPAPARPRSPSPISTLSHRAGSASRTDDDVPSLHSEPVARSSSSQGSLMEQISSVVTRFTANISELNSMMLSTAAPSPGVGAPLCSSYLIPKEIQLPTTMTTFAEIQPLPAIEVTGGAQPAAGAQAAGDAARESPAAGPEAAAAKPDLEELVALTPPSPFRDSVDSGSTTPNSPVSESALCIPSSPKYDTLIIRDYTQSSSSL
- Test name: Tested for […] in non-neuronal cells (RGT) expressing human Metabotropic glutamate receptor 5 by measuring ACPD (100 uM)-stimulated phosphoinositide hydrolysis
This section presents compounds with their documented IC50 values.

Query string: Can you share its IC50? I mean this compound: N[C@@H](C[C@H](CC(c1ccccc1)c1ccccc1)C(=O)O)C(=O)O
Result string: > 300 µM

Query string: Quick one: IC50 for N[C@@H](C[C@H](CCCC(c1ccccc1)c1ccccc1)C(=O)O)C(=O)O ?
Result string: > 300 µM
